Assayed system: Protein cereblon (Homo sapiens)
Sequence (Q96SW2 whole entry): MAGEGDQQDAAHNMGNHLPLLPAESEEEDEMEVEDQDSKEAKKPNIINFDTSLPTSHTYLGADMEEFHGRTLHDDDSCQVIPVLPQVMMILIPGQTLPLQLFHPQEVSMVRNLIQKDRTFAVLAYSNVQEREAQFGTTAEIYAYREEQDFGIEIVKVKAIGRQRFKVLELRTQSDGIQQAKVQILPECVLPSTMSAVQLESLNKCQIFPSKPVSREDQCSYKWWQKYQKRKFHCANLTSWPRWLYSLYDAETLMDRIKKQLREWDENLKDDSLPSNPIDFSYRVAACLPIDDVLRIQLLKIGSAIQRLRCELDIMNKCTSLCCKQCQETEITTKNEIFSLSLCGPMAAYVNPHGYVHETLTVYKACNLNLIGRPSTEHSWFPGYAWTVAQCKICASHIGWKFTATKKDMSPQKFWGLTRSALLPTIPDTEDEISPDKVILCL
Procedure details: Cereblon (CRBN) Target Engagement
Measurement label: EC50 (nM)

> print(dat)
                                   compound                   assayed.system  measurement.label  units.of.measure  recorded.result
1  O=C1CCC(N2Cc3cc(O[C@H]4CCCC[C@@H]4N4CC(c5ccc(F)cc5Cl)C4)ccc3C2=O)C(=O)N1 (some centres not stated)  Protein cereblon (Homo sapiens)               EC50                nM               15

(1) O=C1CCC(N2Cc3cc(O[C@H]4CCC[C@@H]4N4CC(c5ccc(F)cc5Cl)C4)ccc3C2=O)C(=O)N1 (some centres not stated)
(2) O=C1NC(=O)C2(N3Cc4cc(O[C@H]5CCCC[C@@H]5N5CC(c6cccc(F)c6)C5)ccc4C3=O)CC1C2
(3) O=C1CCC(N2Cc3cc(O[C@H]4CCC[C@@H]4N4CC(c5cccc(F)c5)C4)ccc3C2=O)C(=O)N1 (some centres not stated)
Query block: Order by EC50, ascending. Present the labels in the sequence the task asks for.
Result block: 1, 3, 2

These entries and their values trace back to BindingDB's records for patent US20240246935.
